Target: Sodium channel protein type 5 subunit alpha (Homo sapiens, UniProt Q14524)
Sequence (Q14524 whole entry): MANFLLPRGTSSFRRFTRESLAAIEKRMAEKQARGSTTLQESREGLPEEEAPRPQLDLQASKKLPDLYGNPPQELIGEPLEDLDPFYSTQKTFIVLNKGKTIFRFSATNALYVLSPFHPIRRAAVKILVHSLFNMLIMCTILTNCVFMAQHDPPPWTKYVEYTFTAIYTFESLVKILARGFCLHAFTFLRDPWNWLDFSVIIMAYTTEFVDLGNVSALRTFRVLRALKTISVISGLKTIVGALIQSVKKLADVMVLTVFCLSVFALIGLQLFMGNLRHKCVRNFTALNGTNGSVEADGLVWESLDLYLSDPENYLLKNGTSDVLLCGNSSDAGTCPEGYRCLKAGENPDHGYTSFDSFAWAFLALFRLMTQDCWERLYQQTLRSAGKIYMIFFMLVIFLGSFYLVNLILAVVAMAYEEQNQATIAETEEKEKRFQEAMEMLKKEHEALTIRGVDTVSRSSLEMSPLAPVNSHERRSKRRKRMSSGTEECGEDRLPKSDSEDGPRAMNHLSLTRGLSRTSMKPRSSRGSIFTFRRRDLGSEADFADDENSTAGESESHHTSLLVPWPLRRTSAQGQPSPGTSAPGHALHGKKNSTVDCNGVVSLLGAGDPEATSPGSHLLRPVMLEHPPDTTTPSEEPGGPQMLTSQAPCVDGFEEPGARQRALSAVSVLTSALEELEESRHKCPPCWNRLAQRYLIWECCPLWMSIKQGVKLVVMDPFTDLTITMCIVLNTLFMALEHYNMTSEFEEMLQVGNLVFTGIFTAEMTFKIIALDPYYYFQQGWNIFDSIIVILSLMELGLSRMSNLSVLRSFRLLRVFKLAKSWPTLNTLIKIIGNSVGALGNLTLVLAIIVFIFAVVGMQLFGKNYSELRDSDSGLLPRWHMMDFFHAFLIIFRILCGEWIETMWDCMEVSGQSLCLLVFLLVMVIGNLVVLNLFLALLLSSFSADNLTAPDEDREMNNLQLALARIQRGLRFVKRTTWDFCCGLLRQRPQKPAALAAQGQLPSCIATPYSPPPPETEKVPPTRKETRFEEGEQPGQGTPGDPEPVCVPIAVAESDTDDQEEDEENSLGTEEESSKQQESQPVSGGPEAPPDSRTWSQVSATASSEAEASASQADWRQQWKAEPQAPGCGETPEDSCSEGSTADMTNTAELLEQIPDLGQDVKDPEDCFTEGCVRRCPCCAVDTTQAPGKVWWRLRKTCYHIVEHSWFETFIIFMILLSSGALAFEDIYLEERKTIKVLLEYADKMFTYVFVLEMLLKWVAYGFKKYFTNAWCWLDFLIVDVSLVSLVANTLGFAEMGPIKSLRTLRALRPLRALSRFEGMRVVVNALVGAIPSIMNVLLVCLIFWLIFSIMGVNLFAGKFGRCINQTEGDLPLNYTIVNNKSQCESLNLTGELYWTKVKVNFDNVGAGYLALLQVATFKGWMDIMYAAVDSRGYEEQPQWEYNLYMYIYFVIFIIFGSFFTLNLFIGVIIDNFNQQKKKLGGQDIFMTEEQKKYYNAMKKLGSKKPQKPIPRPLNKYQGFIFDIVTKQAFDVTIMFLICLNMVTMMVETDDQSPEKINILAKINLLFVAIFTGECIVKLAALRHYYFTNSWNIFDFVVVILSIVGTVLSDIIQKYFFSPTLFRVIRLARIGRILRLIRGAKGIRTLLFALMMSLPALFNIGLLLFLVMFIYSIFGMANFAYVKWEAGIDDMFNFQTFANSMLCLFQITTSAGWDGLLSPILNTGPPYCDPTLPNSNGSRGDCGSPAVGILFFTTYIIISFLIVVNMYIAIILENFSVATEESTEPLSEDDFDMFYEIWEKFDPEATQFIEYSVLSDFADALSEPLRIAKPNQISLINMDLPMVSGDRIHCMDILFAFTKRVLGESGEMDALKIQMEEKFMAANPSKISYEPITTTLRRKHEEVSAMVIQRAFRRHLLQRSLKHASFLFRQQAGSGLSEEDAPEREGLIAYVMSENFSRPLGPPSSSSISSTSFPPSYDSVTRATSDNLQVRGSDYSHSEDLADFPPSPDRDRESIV
Experiment: Inhibition of human Nav1.5 expressed in HEK293 cells after 600 secs at -50 mV holding potential by ion works barracuda population patch clamp method

# Smiles entry, IC50
records = [
    ("CC(C)COc1ccc(-c2cn(C)c3cc(C(=O)NS(C)(=O)=O)ccc23)cc1", "18 µM"),
    ("Cn1cc(-c2ccc(C(F)(F)F)cc2)c2ccc(C(=O)NS(=O)(=O)C3CC3)cc21", "8.4 µM"),
    ("CC(C)COc1ccc(-c2cn(C)c3cc(C(=O)NS(C)(=O)=O)ccc23)cn1", "> 30 µM"),
    ("Cn1cc(-c2cnc(OCC(C)(C)O)c(Cl)c2)c2ccc(C(=O)NS(C)(=O)=O)cc21", "> 30 µM"),
    ("CC(C)COc1ncc(-c2nn(C)c3cc(C(=O)NS(=O)(=O)C4CC4)ccc23)cc1Cl", "5.9 µM"),
    ("Cn1cc(-c2ccc(C(F)F)cc2)c2ccc(C(=O)NS(=O)(=O)C3CC3)cc21", "> 30 µM"),
    ("Cn1cc(-c2cnc(OCC(F)F)c(Cl)c2)c2ccc(C(=O)NS(C)(=O)=O)cc21", "> 30 µM"),
    ("CC(C)COc1ncc(-c2cn(C)c3cc(C(=O)NS(=O)(=O)C4CC4)c(F)cc23)cc1Cl", "5.1 µM"),
    ("COc1cc(-c2cn(C)c3cc(C(=O)NS(=O)(=O)C4CC4)ccc23)cnc1OCC(C)C", "> 30 µM"),
    ("Cn1cc(-c2cnc(OCC(F)(F)F)c(Cl)c2)c2ccc(C(=O)NS(C)(=O)=O)cc21", "12 µM"),
    ("Cn1cc(-c2ccc(C(F)F)cc2)c2cc(F)c(C(=O)NS(C)(=O)=O)cc21", "> 30 µM"),
    ("CCc1ccc(-c2cn(C)c3cc(C(=O)NS(C)(=O)=O)ccc23)cc1", "> 30 µM"),
    ("Cn1cc(-c2cccc(F)c2F)c2ccc(C(=O)NS(C)(=O)=O)cc21", "> 30 µM"),
    ("CC(C)COc1ccc(-c2nn(C)c3cc(C(=O)NS(C)(=O)=O)ccc23)cn1", "> 30 µM"),
    ("CCc1cccc(-c2cn(C)c3cc(C(=O)NS(C)(=O)=O)ccc23)c1", "> 30 µM"),
    ("Cn1cc(-c2ccc(OC(F)(F)F)cc2)c2ccc(C(=O)NS(C)(=O)=O)cc21", "16 µM"),
    ("Cn1nc(-c2ccc(C(F)(F)F)cc2)c2cc(F)c(C(=O)NS(C)(=O)=O)cc21", "> 30 µM"),
    ("COc1cc(-c2cn(C)c3cc(C(=O)NS(C)(=O)=O)ccc23)cnc1OCC(C)C", "> 30 µM"),
    ("Cn1nc(-c2ccc(C(F)(F)F)cc2)c2ccc(C(=O)NS(C)(=O)=O)cc21", "> 30 µM"),
    ("CC(C)Cc1ccc(-c2cn(C)c3cc(C(=O)NS(C)(=O)=O)ccc23)cc1", "> 30 µM"),
]
